# system: MAOA (Homo sapiens)
# Sequence (P21397 whole entry): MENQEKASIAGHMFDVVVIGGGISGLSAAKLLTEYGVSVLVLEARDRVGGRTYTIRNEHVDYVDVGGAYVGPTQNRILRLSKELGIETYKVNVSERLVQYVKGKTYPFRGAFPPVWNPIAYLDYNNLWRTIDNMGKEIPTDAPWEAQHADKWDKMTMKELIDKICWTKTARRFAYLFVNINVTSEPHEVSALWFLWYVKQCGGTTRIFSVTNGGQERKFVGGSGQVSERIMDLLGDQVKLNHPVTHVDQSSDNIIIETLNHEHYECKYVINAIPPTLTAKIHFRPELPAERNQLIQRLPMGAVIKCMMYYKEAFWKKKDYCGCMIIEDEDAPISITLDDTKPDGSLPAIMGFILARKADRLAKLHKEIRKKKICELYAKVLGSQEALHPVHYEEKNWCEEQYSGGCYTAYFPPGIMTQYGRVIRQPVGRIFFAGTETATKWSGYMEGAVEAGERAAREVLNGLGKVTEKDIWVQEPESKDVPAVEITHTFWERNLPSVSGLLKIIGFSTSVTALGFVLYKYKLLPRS
# measurement_description: Inhibition of full-length recombinant human MAOA expressed in insect cells at 10 uM using kynuramine as substrate preincubated for 15 mins followed by substrate addition and measured after 60 mins by spectrofluorimetric method relative to control
# condition_summary: probe kynuramine

chemical_structure	inhibition at 1 h, 10 µM
O=c1[nH]c(N2CCC3(CC2)CN(CCO)c2cc(F)cc(F)c23)nc2c1CCCC2	> 20%

====

# system: Poly [ADP-ribose] polymerase 2 (Homo sapiens, UniProt Q9UGN5)
# Sequence (Q9UGN5 whole entry, the tested form may be a part): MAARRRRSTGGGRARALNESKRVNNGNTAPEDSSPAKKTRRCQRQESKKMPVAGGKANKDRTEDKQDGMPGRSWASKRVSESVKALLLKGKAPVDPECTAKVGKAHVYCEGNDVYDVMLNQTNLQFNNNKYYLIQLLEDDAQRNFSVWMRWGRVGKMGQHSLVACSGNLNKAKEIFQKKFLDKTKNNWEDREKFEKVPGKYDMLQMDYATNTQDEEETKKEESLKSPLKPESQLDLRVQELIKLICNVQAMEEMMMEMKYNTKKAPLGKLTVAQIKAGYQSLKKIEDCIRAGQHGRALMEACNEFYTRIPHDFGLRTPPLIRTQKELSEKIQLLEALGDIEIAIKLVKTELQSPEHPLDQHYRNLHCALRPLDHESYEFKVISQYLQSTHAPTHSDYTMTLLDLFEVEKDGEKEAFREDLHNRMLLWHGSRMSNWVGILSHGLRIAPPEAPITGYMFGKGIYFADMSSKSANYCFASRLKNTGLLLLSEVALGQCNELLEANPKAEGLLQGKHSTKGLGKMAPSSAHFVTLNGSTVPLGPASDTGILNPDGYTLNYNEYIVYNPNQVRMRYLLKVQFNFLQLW
# measurement_description: Inhibition of human recombinant N-terminal GST-tagged PARP2 (2 to 583 residues) expressed in baculovirus infected Sf9 cells assessed as reduction in auto-PARylation using histone as substrate measured after 45 mins in presence of biotinylated-NAD+ by ELISA
pIC50: −log10 of the molar value.
measured_metric: pIC50

chemical_structure	modifier_sign	value_measured
O=c1[nH]c(N2CCC3(CC2)CN(CCO)c2cc(F)cc(F)c23)nc2c1CCCC2	=	5.57
CS(=O)(=O)c1ccc(-c2nnc(/C=C/c3nnc(-c4ccc(C#N)cc4)o3)n2-c2ccccc2Cl)nc1	<	4.00
COc1ccccc1N1CCN(c2nc3c(c(=O)[nH]2)CCCC3)CC1	=	5.65

====

Measured pIC50, listed per entry.
# system: Poly [ADP-ribose] polymerase tankyrase-2 (Homo sapiens, UniProt Q9H2K2)
# Sequence (Q9H2K2 whole entry): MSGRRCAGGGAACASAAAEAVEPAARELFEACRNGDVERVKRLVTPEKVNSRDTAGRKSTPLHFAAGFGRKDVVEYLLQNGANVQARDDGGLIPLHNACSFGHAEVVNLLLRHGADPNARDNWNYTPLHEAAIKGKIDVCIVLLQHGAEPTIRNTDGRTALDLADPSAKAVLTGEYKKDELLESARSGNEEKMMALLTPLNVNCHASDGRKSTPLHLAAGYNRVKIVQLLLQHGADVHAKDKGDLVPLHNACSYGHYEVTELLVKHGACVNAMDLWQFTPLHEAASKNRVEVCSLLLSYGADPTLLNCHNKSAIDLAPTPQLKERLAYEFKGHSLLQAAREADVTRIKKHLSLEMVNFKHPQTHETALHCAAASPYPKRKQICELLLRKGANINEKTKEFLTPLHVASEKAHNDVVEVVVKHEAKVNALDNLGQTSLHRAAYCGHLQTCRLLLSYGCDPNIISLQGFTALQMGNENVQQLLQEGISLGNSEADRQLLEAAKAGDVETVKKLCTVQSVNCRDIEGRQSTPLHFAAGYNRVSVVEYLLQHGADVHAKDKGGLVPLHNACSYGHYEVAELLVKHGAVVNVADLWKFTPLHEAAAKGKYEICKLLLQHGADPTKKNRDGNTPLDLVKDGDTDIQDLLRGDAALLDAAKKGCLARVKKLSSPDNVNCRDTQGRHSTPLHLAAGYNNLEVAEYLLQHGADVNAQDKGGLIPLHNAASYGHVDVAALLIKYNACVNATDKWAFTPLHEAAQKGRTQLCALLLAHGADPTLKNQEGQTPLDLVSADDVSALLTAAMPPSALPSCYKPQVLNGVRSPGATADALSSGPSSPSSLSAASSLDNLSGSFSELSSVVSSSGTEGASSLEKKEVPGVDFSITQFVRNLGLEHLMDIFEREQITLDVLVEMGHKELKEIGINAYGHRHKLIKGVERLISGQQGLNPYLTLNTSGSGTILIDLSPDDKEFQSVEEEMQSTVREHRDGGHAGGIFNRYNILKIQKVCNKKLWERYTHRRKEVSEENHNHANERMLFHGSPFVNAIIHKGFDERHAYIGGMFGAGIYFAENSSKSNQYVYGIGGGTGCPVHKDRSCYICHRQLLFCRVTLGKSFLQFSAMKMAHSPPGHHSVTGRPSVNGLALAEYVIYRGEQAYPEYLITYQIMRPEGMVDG
pIC50: −log10 of the molar value.

compound	pIC50
O=C1N(CCO)c2cccc(Cl)c2C12CCN(c1nc3c(c(=O)[nH]1)CCCC3)CC2	8.17
O=c1[nH]c(N2CCC3(CC2)CNc2cccc(Cl)c23)nc2c1CCCC2	8.28
COc1ccccc1N1CCN(c2nc3c(c(=O)[nH]2)CC(C)CC3)CC1 (configuration not stated)	5.46
O=c1[nH]c(N2CCC3(CC2)CN(CCO)c2cc(Cl)cc(Cl)c23)nc2c1CCCC2	7.79
O=c1[nH]c(N2CCC3(CC2)CNc2ccccc23)nc2c1CCCC2	7.68
COc1ccc(N2CCN(c3nc4c(c(=O)[nH]3)CSCC4)CC2)cc1	8.59
O=c1[nH]c(N2CCC3(CC2)CN(CCO)c2cccc(Cl)c23)nc2c1CCCC2	7.77
O=c1[nH]c(N2CCC3(CC2)CNc2cc(Cl)cc(Cl)c23)nc2c1CCCC2	7.98
COc1ccccc1C1=CCN(c2nc3c(c(=O)[nH]2)CCCC3)CC1	7.30
O=C1N(CCO)c2ccccc2C12CCN(c1nc3c(c(=O)[nH]1)CCCC3)CC2	7.59
N#Cc1cccc2c1C1(CCN(c3nc4c(c(=O)[nH]3)CCCC4)CC1)CN2	7.73
O=c1[nH]c(N2CCC3(CC2)CNc2cc(Cl)ccc23)nc2c1CCCC2	8.24
